The reported measurements were obtained from patent US6451804B1.

Each record here notes measured melting point.
Where a name gives a salt, the structure may show the parent alone.

compound | melting point
C[C@@H](O)[C@H](CO)Nc1ncc2c(n1)N(C)C(=O)N(c1ccccc1Cl)C2 (stereo in doubt) (as salt: hydrochloride) | 199 to 204 °C
CN(C)C(=O)CN1CCC(CNc2ncc3c(n2)NC(=O)N(c2ccccc2Cl)C3)CC1 (as salt: hydrochloride) | 210.2 to 214.4 °C
O=C1N(c2ccccc2Cl)Cc2cnc(N[C@H]3CC[C@H](O)CC3)nc2N1CCO | 96.6 to 122.8 °C
COC(=O)CN1C(=O)N(c2ccccc2Cl)Cc2cnc(N[C@H]3CC[C@H](O)CC3)nc21 | 212 to 215 °C
O=C1Nc2nc(NCC3CCC(O)CC3)ncc2CN1c1ccccc1Cl (stereo not shown) (as salt: hydrochloride) | 208.3 to 217.9 °C
N#CCN1C(=O)N(c2ccccc2Cl)Cc2cnc(N[C@H]3CC[C@H](O)CC3)nc21 | 130.8 °C
C[C@@H](CO)Nc1ncc2c(n1)N(C1CCNCC1)C(=O)N(c1ccccc1Cl)C2 (as salt: hydrochloride) | 244 to 248 °C
